- Assay Remarks: Solubility test in water and in methanol at room temperature
- Type: physicochemical
- Test Settings: organic solvent or mixture, thermodynamic from solid, methanol, read-out: Solubility in methanol(/mL)
- Description: According to the conventional method for determining the solubility, at the room temperature, a suitable amount of the compound to be tested was placed in 15 mL of water. Then the compound was dissolved by sufficient stir. The solution is placed at room temperature for 3 hours. Then 10 ml of the clear saturated supernatant was transferred into the weighing bottle with the pipette. […] The solubility of the compound to be tested in methanol was determined along the same lines.
Measure: solubility at 3 h

Ask | Look up solubility at 3 h of C=CC(=O)Nc1ccc2ncnc(Nc3ccc(OCc4cccc(F)c4)c(Cl)c3)c2c1 [Compound of formula (I)] and report it.
Reply | < 1000 µg/mL
